Biological target: Toll-like receptor 8 (Homo sapiens)
Sequence (Q9NR97 whole entry): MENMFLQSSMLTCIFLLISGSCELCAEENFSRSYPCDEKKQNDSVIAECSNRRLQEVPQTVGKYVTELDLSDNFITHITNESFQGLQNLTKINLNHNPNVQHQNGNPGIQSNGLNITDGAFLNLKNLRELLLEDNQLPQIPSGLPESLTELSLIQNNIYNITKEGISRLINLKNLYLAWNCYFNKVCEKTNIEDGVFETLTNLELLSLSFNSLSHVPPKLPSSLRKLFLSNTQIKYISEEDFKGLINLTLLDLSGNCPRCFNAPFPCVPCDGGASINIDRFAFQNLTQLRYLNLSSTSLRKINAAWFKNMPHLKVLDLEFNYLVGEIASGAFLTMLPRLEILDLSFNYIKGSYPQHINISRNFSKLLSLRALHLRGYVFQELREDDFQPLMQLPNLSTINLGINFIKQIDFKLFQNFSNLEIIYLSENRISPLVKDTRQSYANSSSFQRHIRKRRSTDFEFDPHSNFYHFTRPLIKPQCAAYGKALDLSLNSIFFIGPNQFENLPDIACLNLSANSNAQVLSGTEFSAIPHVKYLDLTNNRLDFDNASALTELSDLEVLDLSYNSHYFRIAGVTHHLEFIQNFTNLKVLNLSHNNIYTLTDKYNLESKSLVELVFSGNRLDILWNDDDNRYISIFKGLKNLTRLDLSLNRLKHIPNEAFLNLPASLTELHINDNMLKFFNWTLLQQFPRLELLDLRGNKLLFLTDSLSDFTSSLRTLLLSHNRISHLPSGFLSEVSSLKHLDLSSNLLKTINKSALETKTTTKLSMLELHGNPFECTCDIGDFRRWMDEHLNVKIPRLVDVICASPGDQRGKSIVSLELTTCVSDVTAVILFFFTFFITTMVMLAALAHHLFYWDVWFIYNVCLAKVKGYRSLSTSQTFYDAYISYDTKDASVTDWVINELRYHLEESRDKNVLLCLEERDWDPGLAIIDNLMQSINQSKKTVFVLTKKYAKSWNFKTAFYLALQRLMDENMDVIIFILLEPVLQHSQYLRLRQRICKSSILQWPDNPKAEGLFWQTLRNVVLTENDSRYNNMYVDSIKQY
Assay: Agonist activity at TLR8 in human cryopreserved PBMC assessed as induction of IL-12p40 production measured after 24 hrs
quantityName: EC50 (µM)

Worked examples follow.
[[record]]
compound = "CCC[C@@H](CO)Nc1nc(N)nc2cccnc12"
quantityname = "EC50"
unitabbrev = "µM"
numericreadout = 0.43

[[record]]
compound = "CCCC[C@@H](CO)Nc1nc(N)nc2cccnc12"
quantityname = "EC50"
unitabbrev = "µM"
numericreadout = 0.42

[[record]]
compound = "CCCC[C@H](CCO)Nc1nc(N)nc2cccnc12"
quantityname = "EC50"
unitabbrev = "µM"
numericreadout = 4.3

[[record]]
compound = "CCCC[C@H](CO)Nc1nc(N)nc2ccccc12"
quantityname = "EC50"
unitabbrev = "µM"
numericreadout = 1.84

[[record]]
compound = "CCCC[C@@H](Nc1nc(N)nc2cccnc12)C(N)=O"
quantityname = "EC50"
unitabbrev = "µM"
numericreadout = 36


P. CCCC[C@](C)(CO)Nc1nc(N)nc2cc(F)cnc12
Q. CCCC[C@@](C)(CO)Nc1nc(N)nc2cccnc12
R. CCC[C@H](CO)Nc1nc(N)nc2cccnc12
S. CCCCC[C@](C)(CO)Nc1nc(N)nc2cccnc12
Task: Give the ascending ranking of the items by reported EC50. Would you mind listing the labels in the order requested?
Result: P, S, Q, R
